FYI, the data here is from patent US9409952B2.

Test: Metabolic stability in human hepatic microsome
Type: in vitro ADME
Conditions: microsomes, pH 7.4; human hepatic microsome, NADPH(+); read-out: CL NADPH(+)
Positions of bridges follow the written chain, without caps; N, C: chain ends. Non-standard residues stand in square brackets, D forms with d. Residues, ends and D or L forms follow the SMILES beside them. *: point of attachment. NMeF = CN[C@@H](Cc1ccccc1)C(=O)O; NMeL = CN[C@@H](CC(C)C)C(=O)O; NMeV = CN[C@H](C(=O)O)C(C)C; NMeA = CN[C@@H](C)C(=O)O; Piperidide = C1CCN(*)CC1; Sar = CNCC(=O)O

MOLECULE: CC[C@H](C)[C@@H]1NC(=O)[C@@H](C(C)C)NC(=O)C[C@@H](C(=O)N2CCCCC2)NC(=O)[C@H](C)N(C)C(=O)[C@H](CC(C)C)N(C)C(=O)CN(C)C(=O)[C@H]([C@@H](C)O)NC(=O)[C@H](Cc2ccccc2)N(C)C(=O)[C@H](CC(C)C)N(C)C(=O)[C@H](C)NC(=O)[C@H](C(C)C)N(C)C(=O)[C@H](Cc2ccccc2)N(C)C1=O [DP-132] ([dV]I[NMeF][NMeV]A[NMeL][NMeF]T[Sar][NMeL][NMeA]D-Piperidide; lactam N-12)
microsomal CLint at 1 uM: 37 µL/min/mg
